System: SK-MEL-5 melanoma
Assay: NCI-60 one-dose screen, 48 h
Settings: 10 µM unless noted
Protocol: Growth inhibition of the SK-MEL-5 human tumor cell line is measured as a screen for anti-cancer activity. Cells are grown in 96 well plates and exposed to the test compound for 48 hours. Compounds are tested at a single concentration, which is 10^-5 M for most compounds. The reported endpoint is percent growth (GI% or GIPRCNT), where numbers from 0 - 100% represent growth inhibition, and numbers from -100% - 0 represent cell death. For example, a value of 40 represents 60% growth inhibition. […]
About 83,000 compounds went through this panel and 20% of them were active in at least one assay; those are over-represented in the sample as a whole. Active and inactive are the calls of the source. How the source made its calls: active means growth percent below 10; inactive means the rest.
Bench note: report the call from active, inactive

molecule=CCc1nn2c(-c3ccc(Cl)cc3C)c(-c3cc(OC)c(OC)c(OC)c3)nc2s1 assignedclass=inactive
molecule=COc1ccc2c(c1)c(CC(=O)[Se]C)c(C)n2C(=O)c1ccc(Cl)cc1 assignedclass=active
molecule=COc1cccc(/C=N/Nc2nc3ccccc3s2)c1OC assignedclass=inactive
molecule=CN(C)c1ccc(-n2nc3ccccc3n2)cc1 assignedclass=inactive
molecule=O=C1/C=C/[C@@H](O)[C@@H]2C[C@@H](O)C[C@H]2/C=C/CCC[C@H](CO)O1 assignedclass=active
molecule=NS(=O)(=O)c1ccc(-n2ncc3c(SCc4ccccc4)ncnc32)cc1 assignedclass=inactive

In: Recorded test outcome, item COP(=O)(OC)C(c1ccc(O)cc1)(c1ccc(O)cc1)c1ccc(O)cc1
Out: inactive

* * *

Test system: HCC-2998 colon
Assay: NCI-60 one-dose screen, 48 h (100 = growth as untreated, 0 = no growth, -100 = all killed)
Conditions: 10 µM unless noted
The panel holds about 83,000 compounds, 20% with a hit somewhere; the sample as a whole holds those more often. Activity calls are given as the source filed them. The calls were made as follows: active = growth percent below 10; inactive = the rest.
property: growth

Here is how some compounds turned out for growth.
compound="COc1cc2c(cc1OC)C(CC1(O)CCCCC1)N(S(=O)(=O)c1ccc(C)cc1)CC2 (stereo not drawn)" property=growth reportedresult="39% [100 µM] (inactive)"
compound=CCc1ccc(-c2nc(SCC(=O)NC3CCCCC3)n[nH]2)cc1 property=growth reportedresult="76.3% (inactive)"
compound="Cc1cn(C(C=O)OC(C=O)CO)c(=O)[nH]c1=O (stereo not drawn)" property=growth reportedresult="119% (inactive)"
compound=CC(=O)Nc1cc(C(c2ccccc2)c2ccccc2)cc(C(c2ccccc2)c2ccccc2)c1C property=growth reportedresult="64.9% (inactive)"
compound=COc1cc(/C(Cl)=C/C=C/C(=O)c2c(C)[n+]([O-])c3ccc(Cl)cc3[n+]2[O-])cc(OC)c1OC property=growth reportedresult="83.2% (inactive)"

In: Reported growth for HCC-2998 colon, given COc1ccc2nc(N/N=C(\C)c3ccccn3)cc(C)c2c1 ?
Out: -68.3% (active)

In: Ok, now CSc1nc(-c2ccc(O)cc2O)c2c(=O)[nH]c(Nc3ccc(S(=O)(=O)Nc4nc(C)cc(C)n4)cc3)nc2n1
Out: 93.4% (inactive)

In: Try this compound too: O=C(Nc1cccc(Cl)c1)Nc1cccc(Cl)c1
Out: 72.6% (inactive)

In: Please do the same for O=c1[nH]c(SCc2ccccc2)nc2nc(Nc3ccc(NC(=S)Nc4ccccc4)cc3)nc(-c3ccc(O)cc3O)c12 as well.
Out: 98.6% (inactive)

In: Another compound to look at: O=C(CNc1ccc2c(c1)C(=O)c1ccccc1C2=O)Nc1ccc2c(c1)C(=O)c1ccccc1C2=O
Out: -93.3% (active)

In: Do the same for O=C1Nc2ccc(Cl)cc2/C1=C/c1cccs1 please
Out: 77.6% (inactive)

In: And for Cc1cnc2nc(-c3ccc(N(C)C)cc3)cn2c1 ?
Out: 111% (inactive)

In: What would you report for CN1C(=O)C(C2=NN(C=O)C(c3ccc(F)cc3)C2)C(=O)N(C)C1=O (stereo not drawn) ?
Out: 97.5% (inactive)
